biological target: human M4 receptor (Homo sapiens, UniProt P08173); construct: purchased Perkin-Elmer RBHM4M; host or cells: CHO cell membranes; experiment: hM4 receptor GTPγS binding; type: biochemical
Sequence (P08173 whole entry): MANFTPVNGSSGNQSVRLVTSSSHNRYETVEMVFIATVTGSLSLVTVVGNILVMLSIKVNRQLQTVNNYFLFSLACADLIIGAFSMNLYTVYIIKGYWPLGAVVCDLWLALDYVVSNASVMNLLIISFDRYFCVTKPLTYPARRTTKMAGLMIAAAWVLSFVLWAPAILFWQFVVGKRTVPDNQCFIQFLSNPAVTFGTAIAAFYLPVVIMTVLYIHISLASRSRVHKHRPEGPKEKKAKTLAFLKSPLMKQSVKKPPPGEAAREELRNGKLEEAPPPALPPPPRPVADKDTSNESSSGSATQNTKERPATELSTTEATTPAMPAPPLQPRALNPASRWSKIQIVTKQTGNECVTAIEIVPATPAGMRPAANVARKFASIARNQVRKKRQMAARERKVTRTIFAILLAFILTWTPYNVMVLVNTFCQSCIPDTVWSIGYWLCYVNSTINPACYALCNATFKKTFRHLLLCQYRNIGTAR
# Lookup of reported EC50 keyed by entry

Write down the reported EC50 of CCOC(=O)N1CC[C@H](N2CCC(n3c(=O)[nH]c4ccc(Cl)cc43)CC2)C1 , test system: human M4 receptor (Homo sapiens, UniProt P08173). ≥ 10 µM

###

Target: hM1 (human Muscarinic receptor subtype 1) (Homo sapiens)
Sequence (P11229 1-460): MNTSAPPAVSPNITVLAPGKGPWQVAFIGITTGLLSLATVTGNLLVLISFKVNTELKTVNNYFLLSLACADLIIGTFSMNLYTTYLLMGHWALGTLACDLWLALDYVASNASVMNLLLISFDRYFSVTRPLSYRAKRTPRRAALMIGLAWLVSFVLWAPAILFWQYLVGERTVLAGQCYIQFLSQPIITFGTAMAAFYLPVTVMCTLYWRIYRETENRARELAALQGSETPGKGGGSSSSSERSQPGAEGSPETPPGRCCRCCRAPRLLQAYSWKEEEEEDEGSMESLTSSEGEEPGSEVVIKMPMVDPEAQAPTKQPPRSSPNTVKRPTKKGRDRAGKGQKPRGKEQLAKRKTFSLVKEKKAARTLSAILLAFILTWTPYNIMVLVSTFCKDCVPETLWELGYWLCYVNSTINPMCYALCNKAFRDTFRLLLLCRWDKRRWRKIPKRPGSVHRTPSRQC
Assay: Human M1 calcium mobilization FLIPR assay
Conditions: CHO cells expressing hM1, Ca2+ release
Mark met for EC50 under 8 nM, not met if at or over.

Sample answers from the record:
Cn1c(=O)n(C2CCN([C@H]3CCN(C(=O)CCN4CCCC4=O)C3)CC2)c2ccccc21 [Example 24]
not met
CCOC(=O)N1CC[C@H](N2CCC(n3c(=O)[nH]c4ccc(Cl)cc43)CC2)C1 [Example 42]
met
CCOC(=O)N1CCC(N2C3CCC2CC(n2c(=O)[nH]c4ccccc42)C3)C1 (centres unmarked) [Example 30]
not met
CCOC(=O)N1CC[C@H](N2CCC(n3c(=O)[nH]c4ccc(C#N)cc43)CC2)C1 [Example 41]
met
CCOC(=O)N1CCC(N2CCC(n3c(=O)n(C)c4ccccc43)CC2)C1 (centres unmarked) [Example 10]
not met

Decide: EC50 of CCOC(=O)N1CC[C@@H](N2CCC(n3c(=O)[nH]c4ccccc43)CC2)C1 [Example 16] strictly below 8 nM? not met

Hi there! Is EC50 for CCOC(=O)N1CC[C@@H](N2CCC(n3c(=O)[nH]c4ccc(F)cc43)CC2)C1 (single isomer, unassigned) [Example 36] below 8 nM, do you know? not met

###

molecular target: human M2 receptor (Homo sapiens, UniProt P08172); construct: purchased Perkin-Elmer RBHM2M; host or cells: CHO cell membranes; test: hM2 receptor GTPγS binding; type: biochemical
Sequence (P08172 whole entry): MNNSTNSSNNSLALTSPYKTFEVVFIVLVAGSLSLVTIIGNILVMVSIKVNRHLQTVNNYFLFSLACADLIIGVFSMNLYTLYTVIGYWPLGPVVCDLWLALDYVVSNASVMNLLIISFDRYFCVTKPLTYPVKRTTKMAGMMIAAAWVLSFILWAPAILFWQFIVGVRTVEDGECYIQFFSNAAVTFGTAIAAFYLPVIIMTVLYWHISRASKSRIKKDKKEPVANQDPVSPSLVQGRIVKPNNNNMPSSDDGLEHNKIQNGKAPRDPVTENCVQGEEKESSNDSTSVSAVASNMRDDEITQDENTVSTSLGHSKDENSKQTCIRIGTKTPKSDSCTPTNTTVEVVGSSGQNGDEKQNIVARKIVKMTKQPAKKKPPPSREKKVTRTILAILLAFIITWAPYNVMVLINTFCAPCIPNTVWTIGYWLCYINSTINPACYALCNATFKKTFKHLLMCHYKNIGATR
pEC50: −log10 of the molar value.
Readout Label: pEC50

CCOC(=O)N1CC[C@H](N2CCC(n3c(=O)[nH]c4ccc(C#N)cc43)CC2)C1
< 5.48
O=C1CCCN1CCCC(=O)N1CC[C@H](N2CCC(n3c(=O)[nH]c4ccccc43)CC2)C1
< 4.52

For the next question, use this compound.
What does the record list as pEC50 for CCOC(=O)N1CC[C@H](N2CCC(n3c(=O)[nH]c4ccc(F)cc43)CC2)C1 (single isomer, unassigned) ? < 4.52
